target: T1, Bio-P19 member A2E-2 (chain 2 carries a C-terminal BirA substrate peptide (BSP), enzymatically biotinylated; the BSP letters are not given in the patent and are left out); assay: phage ELISA, streptavidin plate, anti-M13-HRP
T1 construct: also called biotinylated control peptide A2E-2/HLA-A*02:01 monomer
T1 sequence (beta, as listed by the source): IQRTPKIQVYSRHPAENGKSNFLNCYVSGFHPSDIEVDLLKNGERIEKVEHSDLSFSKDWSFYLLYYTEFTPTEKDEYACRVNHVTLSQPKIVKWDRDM
attribute measured: binding result

>  <binder>
PSA146/HLA-A*02:01-specific scFv phage clone #13 (scFv, V domains shown) VH: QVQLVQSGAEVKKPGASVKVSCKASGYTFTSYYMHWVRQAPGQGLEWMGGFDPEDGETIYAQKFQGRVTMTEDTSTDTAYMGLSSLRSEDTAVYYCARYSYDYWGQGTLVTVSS VL: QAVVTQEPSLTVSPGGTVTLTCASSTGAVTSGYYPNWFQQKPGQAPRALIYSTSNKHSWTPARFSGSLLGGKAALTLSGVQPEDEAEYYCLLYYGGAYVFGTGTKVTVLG

>  <data value>
no binding

$$$$
>  <binder>
PSA146/HLA-A*02:01-specific scFv phage clone #15 (scFv, V domains shown) VH: QVQLVQSGAEVKKPGSSVKVSCKASGGTFSSYAISWVRQAPGQGLEWMGRIIPILGIANYAQKFQGRVTITADKSTSTAYMELSSLRSEDTAVYYCARVSQPVYGSSTYDIWGQGTLVTVSS VL: QAVLTQPPSASGTPGQRVTISCSGRSSNLGSNSVNWYQQVPGTAPKLLIFDNHQRPSGVPDRFSGSKSGTSASLAISGLRSEDETDYYCAAWDDSLNSVVFGGGTKLTVLG

>  <data value>
no binding

$$$$
>  <binder>
PSA146/HLA-A*02:01-specific scFv phage clone #9 (scFv, V domains shown) VH: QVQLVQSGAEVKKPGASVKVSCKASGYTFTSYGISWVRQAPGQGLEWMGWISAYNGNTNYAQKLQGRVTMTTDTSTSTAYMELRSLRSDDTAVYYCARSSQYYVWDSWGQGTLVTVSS VL: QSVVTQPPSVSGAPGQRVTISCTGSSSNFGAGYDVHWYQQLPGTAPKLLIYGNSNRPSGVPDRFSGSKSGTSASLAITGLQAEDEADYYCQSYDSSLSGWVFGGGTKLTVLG

>  <data value>
no binding

$$$$
>  <binder>
PSA146/HLA-A*02:01-specific scFv phage clone #18 (scFv, V domains shown) VH: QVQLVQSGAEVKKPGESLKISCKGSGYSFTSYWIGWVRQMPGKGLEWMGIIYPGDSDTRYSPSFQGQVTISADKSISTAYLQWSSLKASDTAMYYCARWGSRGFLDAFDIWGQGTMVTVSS VL: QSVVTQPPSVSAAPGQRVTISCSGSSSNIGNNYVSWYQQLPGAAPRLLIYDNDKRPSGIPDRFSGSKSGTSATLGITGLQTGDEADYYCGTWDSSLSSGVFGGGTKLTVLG

>  <data value>
no binding

$$$$

Check the records and state binding result for PSA146/HLA-A*02:01-specific scFv phage clone #5 (scFv, V domains shown) VH: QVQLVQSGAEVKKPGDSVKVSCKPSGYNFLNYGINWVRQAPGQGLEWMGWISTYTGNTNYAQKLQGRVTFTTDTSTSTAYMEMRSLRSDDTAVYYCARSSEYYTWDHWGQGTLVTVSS VL: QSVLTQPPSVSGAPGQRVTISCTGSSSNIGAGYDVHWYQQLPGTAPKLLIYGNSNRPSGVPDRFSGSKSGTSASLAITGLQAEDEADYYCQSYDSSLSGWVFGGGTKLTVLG
no binding
